experimental_parameters: in n-propyl acetate, 308.15 K
outcome_measure: solubility (mole fraction)

{"columns": ["smiles_record", "outcome_measure", "numeric_value"],
 "data": [
  ["N#Cc1c(Cl)c(Cl)c(Cl)c(C#N)c1Cl", "solubility (mole fraction)", 0.00566]
]}

====

experimental_parameters: in acetone, 298.15 K

{"columns": ["smiles_record", "solubility (mole fraction)"],
 "data": [
  ["N#Cc1c(Cl)c(Cl)c(Cl)c(C#N)c1Cl", 0.00512]
]}
